test: folding stability dG unfold from trypsin proteolysis; higher = more stable
Form field: folding stability dG unfold (one value per entry).
Observable: folding stability dG unfold

Residue codes: SAGGSAGGSAGGKKVTITITIKVKEGEEITINGKKITVKPGETITITITITVPPKKKKKSAGGSAGGSAGGS [r10_949_TrROS_Hall]
Val: 1.57 kcal/mol
--
Residue codes: SAGGKTVPIMFPFDSPDQIEEIIEELAKPGFDDVKPERIEPEPPPDGNYYFPVRIEVDPKNGKIEITFSAGG [r13_174_TrROS]
Val: 0.0445 kcal/mol
--
Residue codes: SAGGSAGGSMETRTFDSEEELRASVSVPSSLSVTFERRPGRWEVRIEPPLSPEEIAAQRARLLSAGGSAGGS [r12_274_JUSTAS]
Val: -0.346 kcal/mol
--
Residue codes: SAGGSADPDDKEQKIKVEIETYRLEDNGMEVTRIELEGHGMPIYIARFPDGRMFIFTANGELEQIPSAGGSA [r15_617_TrROS]
Val: 1.97 kcal/mol
--
Residue codes: SMYRIEVVRDGKPIPREAVEAAAEAIERARGRPISPEALARELASVPNTVVTVEAYDEPGKPLGTLTFAESA [r9_1045_TrMRF]
Val: -0.253 kcal/mol
--
Residue codes: SAGGSAGGSAGGKKTIVIEINGKKYTITRIEFDKDTKKITIEIEFNGKKLKIEIELPKNLSAGGSAGGSAGG [r7_477_TrROS_Hall]
Val: 2.17 kcal/mol
--
Residue codes: SAGGMEVKEISIPVPENLTPEQAVEKVKELFEKHPELEHVLVYFELPNGKPLVVEVDKNGKITKVEEKSAGG [r13_690_TrMRF]
Val: 0.889 kcal/mol

----------
Reported folding stability dG unfold values follow for various sequences
test: folding stability dG unfold from trypsin proteolysis; higher = more stable

Residue codes: SAGGSAGGDPNKPPPPKQIEIPIPPDNITDVEPNPDGFYFMEFNLPDGDSITIIVYPDGNIHIMSAGGSAGG [r6_119_TrROS]
folding stability dG unfold, kcal/mol: 2.83
//
Residue codes: SAGGSAGGSAGKVIKLEELKKKFPNMSPEELAAFFKKLGYKVEVVKVGDVPYVFLSPGEKSAGGSAGGSAGG [r11_707_TrMRF]
folding stability dG unfold, kcal/mol: 2.2
//
Residue codes: SEPRYHVEIRLPVLLVVPPELLEPDPERDSYRLPEDDLPVHPDAVIPREVTFSGPMTAEEVVRRTLALLSSA [r9_165_TrMRF]
folding stability dG unfold, kcal/mol: 0.455
//
Residue codes: SAMIVVEIEESRSPTSPERTVTVTVKKPDGTVVKTIPITVSGANPSATPEEVRALAEPIVEELVKKGLLSAG [r14_120_JUSTAS]
folding stability dG unfold, kcal/mol: 1.44

----------
Here, each record is paired with measured folding stability dG unfold data.
assay: folding stability dG unfold (combined trypsin and chymotrypsin); higher = more stable

Residue codes: SAGGSAGGSAGGGMRFTVEVEPGKVSYSPGIVNKNTPGSSVSEIITVTVVETNPEKLLLSAGGSAGGSAGGS [r10_654_JUSTAS]
Value prefix: =
folding stability dG unfold (kcal/mol): 0.211

Residue codes: SAGGSAGGSLTVSFPGITLTLETVPGTGKIIATVTFPGGEVRTISSDVPLSELPPVVREALELLSAGGSAGG [r6_749_JUSTAS]
Value prefix: =
folding stability dG unfold (kcal/mol): 2.74

Residue codes: SAGGSAGGGMTGATPTPRTVPLPGDRTATVYERPETGELLVELPGRRLRVSPAALAAGEVALEASAGGSAGG [r6_940_JUSTAS]
Value prefix: <
folding stability dG unfold (kcal/mol): -1

Residue codes: SAGGSAGGGMTLQITSIIEIKKPPDGPVVKFTVAGPGTTRTVTINLPENEIKPTTPIPLSRVLSSAGGSAGG [r6_585_JUSTAS]
Value prefix: =
folding stability dG unfold (kcal/mol): 1.57

Residue codes: SAGGSAGGESSRLVAVFKFPPSNPNIKTSISFPSLPKSAKISESQAPFGNEYYLVVVIEVPKNSSAGGSAGG [r6_480_TrMRF]
Value prefix: =
folding stability dG unfold (kcal/mol): 3.37

Residue codes: SAGGSAGGSAGAGKVVFEVDIKTFLGKRKDGSDAPKTIIEIKVFDIAPLDPNDPVLKALISAGGSAGGSAGG [r11_236_TrMRF]
Value prefix: =
folding stability dG unfold (kcal/mol): 3.26

Residue codes: SARILRVEFEPFPLTERARLRLEVEDEDNDFPYEVDIELEVLPDPSEVRLRLVVRRPDGSRRELELRLFSAG [r14_10_TrMRF]
Value prefix: =
folding stability dG unfold (kcal/mol): 4.23

----------
Measured folding stability dG unfold by item
assay: folding stability dG unfold (combined trypsin and chymotrypsin); higher = more stable
Observable: folding stability dG unfold (kcal/mol)

Residue codes: SAGGSMPKGQEVKIEIEHRRHNGRRYWRVSVEVPNGKDIEIPFDDPEEMPPEMKKQIENLAKEIVKSAGGSA [r2_17_TrROS]
Val: 0.874
--
Residue codes: SAPEVFRFTIPRYRDDYEFDGDGYPVLKERKPVAPLEVEAVVFEDGTVRVRVGDEVREFPLGVSPEELFSAG [r14_909_TrMRF]
Val: 0.566
--
Residue codes: SAGGTIKITIKAENLTEEEKEELAKKIADELKKKGYKVKKVEVTVEKEKEKTVTITLENGKKIEVKLSAGGS [r8_485_TrROS_Hall]
Val: 2.31
--
Residue codes: SASKGSSMITVELTVTVPPSVSIEEVKKQFEEEFPKDAEIKVEATPVTVPANGTPVTTIKVTVTITKKESAG [r14_633_JUSTAS]
Val: 1.56

----------
assay: folding stability dG unfold (combined trypsin and chymotrypsin); higher = more stable
Here, each record is paired with measured folding stability dG unfold data.

Residue codes: SAGGSAGGSAKKIKIKIKVYNPETKEVLELEIEVSEEEAEELAKKLAEELEKKGYKIEEVEISAGGSAGGSA [r18_3_TrROS_Hall]
folding stability dG unfold: 3.85 kcal/mol
//
Residue codes: SAGGSAGGMIYKFTYPKGEPPLLFTYDPSTGKVTVTEPKTGKPLGTVDLSLEEAVKAGARIEPVSAGGSAGG [r6_832_JUSTAS]
folding stability dG unfold: 0.84 kcal/mol
//
Residue codes: SAGGSAGGSAGSVTVTFISLEEGERYLVLTELRFGDYGIESRSTRIEVSDEKLEELKKAFSAGGSAGGSAGG [r11_47_TrMRF]
folding stability dG unfold: 2 kcal/mol
//
Residue codes: SMKKPIDLIKKLGYTLTSVTKLPNGTTLITFEHPDSTVTVTVNPDGNIKITTTNPKNGTTTTTTIPVNKLSA [r9_2_JUSTAS]
folding stability dG unfold: 2.08 kcal/mol
//
Residue codes: SAGGSAGGSAMPEEEKPPIVRTVVLQADGEPIVLTSKPDEEIKLPPSLANAVVLEEEVSPGLSAGGSAGGSA [r18_415_JUSTAS]
folding stability dG unfold: < -1 kcal/mol
//
Residue codes: SAMKETEIPDPVTGNTYTVIDFDDATVVIKNYPDSLTITIIPPPSNTSTTIPMKPGEEEKVLKELGIPPSAG [r14_4_JUSTAS]
folding stability dG unfold: 0.568 kcal/mol
//
Residue codes: SAGGSAGGSAGGMEVKTVEDPKGLTVEVSPPVGTATTVYGDETVTHTLSPSATVALEPASAGGSAGGSAGGS [r10_637_JUSTAS]
folding stability dG unfold: 0.31 kcal/mol
//
Residue codes: SAGGSAGGSAGDEKVPFFVRIIDPKNGKPVREFPVEVDPGKIKIPKELAENMPPDNVEIYSAGGSAGGSAGG [r11_725_TrROS]
folding stability dG unfold: < -1 kcal/mol
//
Residue codes: SAGGMTSEVIETTEEEPERLIKKTFKVTYDENGTPKPELLKVETSPVPEEEIDPSNAPKEKAEKLGLLSAGG [r13_964_JUSTAS]
folding stability dG unfold: < -1 kcal/mol
//
Residue codes: SAGGSAGGSAGSLELEFEFPKDTPLDKIIEELKKLIPEKDPKIEILKVEEKEGGLWIKARVSSAGGSAGGSA [r18_360_TrMRF]
folding stability dG unfold: 3.26 kcal/mol
//
Residue codes: SAGGSARYYFIVIEIWQPGKPVKFIIVVPKEDPKKFESEINEMFPGYNIDIKVIPFPSPEEAEDLFSAGGSA [r15_889_TrROS]
folding stability dG unfold: 2.74 kcal/mol
//
Residue codes: SAGGSAGGSAGGPLPGKPPLRLKLFTLTVRTRTYRKTEDGTWEEVEESEAEITVLVLEPVSAGGSAGGSAGG [r7_506_TrROS_Hall]
folding stability dG unfold: 4.71 kcal/mol
//
Residue codes: SAMVPLEEAAKRVAEELGLEYTEITKIVPGTGELIVEFPGKKLTVTQDPATGSTTVEETFYDPETGVKKSAG [r14_270_JUSTAS]
folding stability dG unfold: < -1 kcal/mol
//
Residue codes: SAGGSAGGSAGGGSVTIRVESPEEAVATAKELLEKLTGAKPEATPLNVVVEEPDGVATVESAGGSAGGSAGG [r7_387_JUSTAS]
folding stability dG unfold: 0.378 kcal/mol
